Where do the numbers come from? From ChEMBL document CHEMBL1141048.

Protocol summary: Steady state volume of Distribution of compound in Mice after administration of 2 mg/kg through intra venous route
Type: ADME, organism-based
Set-up: dose 2 mg/kg
Condition summary: mouse, in vivo, iv, read-out: Vdss

{"columns": ["Structure smiles", "Vd"],
 "data": [
  ["CN1CCC(Oc2cccc3ncnc(Nc4ccc(OCc5ccccn5)c(Cl)c4)c23)CC1", "2.6 L/kg"]
]}

----------
Protocol summary: Plasma concentration of compound after 2 hours of administration of 100 mg/kg through peroral route
Condition summary: mouse, po
Measured property: concentration at 2 h (µM)

{"columns": ["Structure smiles", "Numeric readout"],
 "data": [
  ["CN1CCC(Oc2cccc3ncnc(Nc4ccc(OCc5ccccn5)c(Cl)c4)c23)CC1", 9.2]
]}

----------
Protocol summary: Clearance of compound in Mice after administration of 2 mg/kg through intra venous route
Assay type: ADME, organism-based
Parameters: dose 2 mg/kg
Condition summary: mouse, in vivo, iv

{"columns": ["Structure smiles", "clearance / mL/min/kg"],
 "data": [
  ["CN1CCC(Oc2cccc3ncnc(Nc4ccc(OCc5ccccn5)c(Cl)c4)c23)CC1", 15]
]}

----------
Protocol summary: AUC in Mice after administration of 5 mg/kg through oral route
Condition summary: mouse, plasma

{"columns": ["Structure smiles", "AUC, µM·h"],
 "data": [
  ["CN1CCC(Oc2cccc3ncnc(Nc4ccc(OCc5ccccn5)c(Cl)c4)c23)CC1", 5.5]
]}

----------
Test system: KB
Protocol summary: Inhibitory concentration of compound against KB Basal
Condition summary: Homo sapiens
Measured property: IC50 (µM)

{"columns": ["Structure smiles", "Numeric readout"],
 "data": [
  ["CN1CCC(Oc2cccc3ncnc(Nc4ccc(OCc5cccc(F)c5)c(Cl)c4)c23)CC1", 1.7],
  ["CN1CCC(Oc2cccc3ncnc(Nc4ccc(OCc5ccccn5)c(Cl)c4)c23)CC1", 11.9]
]}

----------
Listed here are compounds together with their documented pIC50.
Test target: Receptor tyrosine-protein kinase erbB-2 (Homo sapiens)
Sequence (P04626 whole entry): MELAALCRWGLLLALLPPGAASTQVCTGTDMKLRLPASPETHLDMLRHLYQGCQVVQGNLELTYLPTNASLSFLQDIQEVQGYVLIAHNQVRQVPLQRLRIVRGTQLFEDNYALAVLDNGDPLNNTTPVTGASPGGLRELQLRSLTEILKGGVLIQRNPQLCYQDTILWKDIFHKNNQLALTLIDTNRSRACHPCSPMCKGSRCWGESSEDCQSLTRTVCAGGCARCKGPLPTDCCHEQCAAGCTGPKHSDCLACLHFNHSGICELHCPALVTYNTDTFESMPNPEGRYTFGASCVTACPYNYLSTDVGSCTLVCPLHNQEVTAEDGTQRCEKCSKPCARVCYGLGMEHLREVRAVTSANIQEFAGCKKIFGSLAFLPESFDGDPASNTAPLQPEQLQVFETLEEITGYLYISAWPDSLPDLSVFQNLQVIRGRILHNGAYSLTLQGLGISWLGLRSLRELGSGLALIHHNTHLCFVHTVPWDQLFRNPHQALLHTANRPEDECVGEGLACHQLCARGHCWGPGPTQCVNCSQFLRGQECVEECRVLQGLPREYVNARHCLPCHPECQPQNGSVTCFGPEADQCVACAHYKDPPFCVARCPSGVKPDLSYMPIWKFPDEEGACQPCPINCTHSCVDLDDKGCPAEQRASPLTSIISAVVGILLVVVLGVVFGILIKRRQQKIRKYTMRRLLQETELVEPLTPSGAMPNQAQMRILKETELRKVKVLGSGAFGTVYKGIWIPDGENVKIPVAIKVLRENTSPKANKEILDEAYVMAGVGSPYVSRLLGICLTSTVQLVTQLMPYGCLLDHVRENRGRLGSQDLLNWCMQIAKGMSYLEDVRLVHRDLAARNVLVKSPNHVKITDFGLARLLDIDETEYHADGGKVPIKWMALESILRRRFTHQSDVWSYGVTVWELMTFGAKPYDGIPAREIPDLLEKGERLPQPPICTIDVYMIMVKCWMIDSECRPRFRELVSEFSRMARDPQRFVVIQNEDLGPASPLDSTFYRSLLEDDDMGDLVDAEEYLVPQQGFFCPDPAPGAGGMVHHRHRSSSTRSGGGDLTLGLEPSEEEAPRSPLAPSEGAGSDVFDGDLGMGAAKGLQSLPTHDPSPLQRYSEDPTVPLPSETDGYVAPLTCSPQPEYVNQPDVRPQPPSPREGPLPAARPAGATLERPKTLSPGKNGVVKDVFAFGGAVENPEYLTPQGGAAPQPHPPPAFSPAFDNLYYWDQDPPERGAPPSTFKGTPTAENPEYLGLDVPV
Protocol summary: Inhibitory concentration against erbB2 kinase phosphorylation using synthetic peptide as a substrate
pIC50: −log10 of the molar value.
Measured property: pIC50

{"columns": ["Structure smiles", "Test target", "Relation operator", "Numeric readout"],
 "data": [
  ["COc1cccc2ncnc(Nc3ccc(OCc4ccccn4)c(Cl)c3)c12", "Receptor tyrosine-protein kinase erbB-2 (Homo sapiens)", "=", 7.62],
  ["CN1CCC(Oc2cccc3ncnc(Nc4ccc(OCc5ccccn5)c(Cl)c4)c23)CC1", "Receptor tyrosine-protein kinase erbB-2 (Homo sapiens)", ">", 8.70],
  ["CN1CCC(Oc2cccc3ncnc(Nc4ccc(OCc5cnccn5)c(Cl)c4)c23)CC1", "Receptor tyrosine-protein kinase erbB-2 (Homo sapiens)", ">", 8.70],
  ["CN1CCC(Oc2cccc3ncnc(Nc4ccc(OCc5ccccn5)cc4)c23)CC1", "Receptor tyrosine-protein kinase erbB-2 (Homo sapiens)", "=", 7.15],
  ["CN1CCC(Oc2cccc3ncnc(Nc4ccc(OCc5cccc(F)c5)c(Cl)c4)c23)CC1", "Receptor tyrosine-protein kinase erbB-2 (Homo sapiens)", ">", 8.70],
  ["COc1cc2ncnc(Nc3ccc(OCc4ccccn4)c(C)c3)c2cc1OC", "Receptor tyrosine-protein kinase erbB-2 (Homo sapiens)", "=", 7.25],
  ["COc1ccc(Nc2ncnc3cccc(OC4CCN(C)CC4)c23)cc1Cl", "Receptor tyrosine-protein kinase erbB-2 (Homo sapiens)", "=", 5.96],
  ["CN1CCC(Oc2cccc3ncnc(Nc4ccc(OCc5cscn5)c(Cl)c4)c23)CC1", "Receptor tyrosine-protein kinase erbB-2 (Homo sapiens)", ">", 8.70],
  ["Clc1cc(Nc2ncnc3cccc(OC4CCOCC4)c23)ccc1OCc1ccccn1", "Receptor tyrosine-protein kinase erbB-2 (Homo sapiens)", "=", 7.62]
]}
